Readings of IC50 for the listed compounds
- studyTarget: recombinant human SPR (Sepiapterin Reductase) (Homo sapiens (Human))
- Sequence (P35270 whole entry): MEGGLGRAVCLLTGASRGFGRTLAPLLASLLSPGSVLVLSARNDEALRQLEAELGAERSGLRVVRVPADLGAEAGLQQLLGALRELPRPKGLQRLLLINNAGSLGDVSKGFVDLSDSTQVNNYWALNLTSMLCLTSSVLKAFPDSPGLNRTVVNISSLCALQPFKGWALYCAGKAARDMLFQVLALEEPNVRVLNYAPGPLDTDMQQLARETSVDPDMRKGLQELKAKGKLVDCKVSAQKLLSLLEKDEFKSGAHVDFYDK
- testSummary: SPR inhibition biochemical assay with chromogenic (OD at 420 nm) and LC/MS (L-biopterin formation) read-out
- conditions: LC/MS read-out, L-biopterin product formation; SPR 6 nM, L-Sepiapterin 50 μM, NADPH 100 μM, pH 6.5, 60 minutes at 37° C.; read-out: IC50 LC/MS

Answered examples (3):
structureAsSmiles	studyTarget	IC50
COCC(=O)NCCc1c[nH]c2ccc(F)cc12	recombinant human SPR (Sepiapterin Reductase) (Homo sapiens (Human))	2800 nM
COCC(=O)NCCc1cn(C)c2ccc(O)cc12	recombinant human SPR (Sepiapterin Reductase) (Homo sapiens (Human))	86 nM
CCOCC(=O)NCCc1c[nH]c2ccc(O)cc12	recombinant human SPR (Sepiapterin Reductase) (Homo sapiens (Human))	2200 nM

Enquiry: GET /values?readout=IC50&item= Oc1ccc2[nH]cc(CCNc3cccnc3)c2c1
Return: 1600 nM

Enquiry: // same read-out, input: CC(C)C(=O)NCCc1c[nH]c2ccc(O)cc12
Return: 330 nM

All values here come from patent US9169234B2.
